- measurement.setup: 323.15 K; 101.33 kPa; Liquid; conductivity meter (DDJS-308A)
Exercise: state measured electrical conductivity for each of the compounds provided.
Answers are plain numbers, in S/m.

Consider the following illustrative entries.
compound	electrical conductivity / S/m
C[N+](C)(C)CCO.O=C([O-])[C@@H]1CCCN1 [2-hydroxy-N,N,N-trimethylethanaminium L-prolinate]	0.00204
C[N+](C)(C)CCO.NCCC(=O)[O-] [2-hydroxy-N,N,N-trimethylethanaminium β-alaninate]	0.0134
C[N+](C)(C)CCO.N[C@@H](CO)C(=O)[O-] [2-hydroxy-N,N,N-trimethylethanaminium L-serinate]	0.00833

Below are some compounds; for each one, tell me its electrical conductivity.
1. C[C@H](N)C(=O)[O-].C[N+](C)(C)CCO [2-hydroxy-N,N,N-trimethylethanaminium L-alaninate]
2. C[N+](C)(C)CCO.NCC(=O)[O-] [2-hydroxy-N,N,N-trimethylethanaminium glycinate]

Given back:
0.0249
0.0388

* * *

- measurement.setup: 308.15 K; 101.33 kPa; Liquid; Cone and plate viscometry
measured.parameter: viscosity (mPa·s)
One number for each entry, in mPa·s.

molecule	unit.annotation	reading
C[N+](C)(C)CCO.NCCC(=O)[O-] [2-hydroxy-N,N,N-trimethylethanaminium β-alaninate]	mPa·s	1820.4

Below are some molecules; for each one, tell me its viscosity.
1. C[N+](C)(C)CCO.O=C([O-])[C@@H]1CCCN1 [2-hydroxy-N,N,N-trimethylethanaminium L-prolinate]
2. C[N+](C)(C)CCO.N[C@@H](CO)C(=O)[O-] [2-hydroxy-N,N,N-trimethylethanaminium L-serinate]
3. C[C@H](N)C(=O)[O-].C[N+](C)(C)CCO [2-hydroxy-N,N,N-trimethylethanaminium L-alaninate]
4. C[N+](C)(C)CCO.NCC(=O)[O-] [2-hydroxy-N,N,N-trimethylethanaminium glycinate]

Given back:
2824.6
3793.3
136.8
84.3

* * *

- test.details: refractive index (Na D-line) (dimensionless)
- measurement.setup: 338.15 K; 101.33 kPa; Liquid; Standard Abbe refractometry
Exercise: state measured refractive index for each of the compounds provided.
Answers are plain numbers.

Consider the following illustrative entries.
compound	refractive index
C[N+](C)(C)CCO.N[C@@H](CO)C(=O)[O-] [2-hydroxy-N,N,N-trimethylethanaminium L-serinate]	1.5341
C[N+](C)(C)CCO.NCC(=O)[O-] [2-hydroxy-N,N,N-trimethylethanaminium glycinate]	1.5137
C[N+](C)(C)CCO.NCCC(=O)[O-] [2-hydroxy-N,N,N-trimethylethanaminium β-alaninate]	1.5238
C[C@H](N)C(=O)[O-].C[N+](C)(C)CCO [2-hydroxy-N,N,N-trimethylethanaminium L-alaninate]	1.5052

Moving on to the next compound.
Asked: Which measured refractive index value corresponds to C[N+](C)(C)CCO.O=C([O-])[C@@H]1CCCN1 [2-hydroxy-N,N,N-trimethylethanaminium L-prolinate] ?
Given back: 1.5317

* * *

Exercise: state measured refractive index for each of the compounds provided.
- test.details: refractive index (Na D-line) (dimensionless)
- measurement.setup: 313.15 K; 101.33 kPa; Liquid; Standard Abbe refractometry
Numbers only.

Consider the following illustrative entries.
compound	reading
C[N+](C)(C)CCO.NCC(=O)[O-] [2-hydroxy-N,N,N-trimethylethanaminium glycinate]	1.5194
C[C@H](N)C(=O)[O-].C[N+](C)(C)CCO [2-hydroxy-N,N,N-trimethylethanaminium L-alaninate]	1.5105
C[N+](C)(C)CCO.N[C@@H](CO)C(=O)[O-] [2-hydroxy-N,N,N-trimethylethanaminium L-serinate]	1.5397
C[N+](C)(C)CCO.O=C([O-])[C@@H]1CCCN1 [2-hydroxy-N,N,N-trimethylethanaminium L-prolinate]	1.5379

Moving on to the next compound.
Asked: Which measured refractive index value corresponds to C[N+](C)(C)CCO.NCCC(=O)[O-] [2-hydroxy-N,N,N-trimethylethanaminium β-alaninate] ?
Given back: 1.5285

* * *

- test.details: refractive index (Na D-line) (dimensionless)
- measurement.setup: 328.15 K; 101.33 kPa; Liquid; Standard Abbe refractometry
Exercise: state measured refractive index for each of the molecules provided.
Numbers only.

molecule	refractive index
C[N+](C)(C)CCO.O=C([O-])[C@@H]1CCCN1 [2-hydroxy-N,N,N-trimethylethanaminium L-prolinate]	1.5344

Below are some molecules; for each one, tell me its refractive index.
1. C[N+](C)(C)CCO.NCC(=O)[O-] [2-hydroxy-N,N,N-trimethylethanaminium glycinate]
2. C[N+](C)(C)CCO.N[C@@H](CO)C(=O)[O-] [2-hydroxy-N,N,N-trimethylethanaminium L-serinate]

Given back:
1.5158
1.5366

Below are some molecules; for each one, tell me its refractive index.
1. C[C@H](N)C(=O)[O-].C[N+](C)(C)CCO [2-hydroxy-N,N,N-trimethylethanaminium L-alaninate]
2. C[N+](C)(C)CCO.NCCC(=O)[O-] [2-hydroxy-N,N,N-trimethylethanaminium β-alaninate]

Given back:
1. 1.5072
2. 1.526

* * *

- measurement.setup: 303.15 K; 101.33 kPa; Liquid; Cone and plate viscometry
Returns yes (1) if the recorded viscosity is greater than or equal to 3000 mPa·s, and no (0) otherwise.

Solved cases (3 shown):
compound	category.label
C[N+](C)(C)CCO.O=C([O-])[C@@H]1CCCN1 [2-hydroxy-N,N,N-trimethylethanaminium L-prolinate]	yes (1)
C[N+](C)(C)CCO.N[C@@H](CO)C(=O)[O-] [2-hydroxy-N,N,N-trimethylethanaminium L-serinate]	yes (1)
C[N+](C)(C)CCO.NCC(=O)[O-] [2-hydroxy-N,N,N-trimethylethanaminium glycinate]	no (0)

Asked: Determine whether measured viscosity meets or exceeds 3000 mPa·s for C[C@H](N)C(=O)[O-].C[N+](C)(C)CCO [2-hydroxy-N,N,N-trimethylethanaminium L-alaninate]
Given back: no (0)

* * *

- test.details: refractive index (Na D-line) (dimensionless)
- measurement.setup: 298.15 K; 101.33 kPa; Liquid; Standard Abbe refractometry
± gives the expanded uncertainty stated by the source.
measured.parameter: refractive index

Consider the following illustrative entries.
compound	refractive index
C[N+](C)(C)CCO.NCCC(=O)[O-] [2-hydroxy-N,N,N-trimethylethanaminium β-alaninate]	1.5313 ± 0.0011
C[N+](C)(C)CCO.NCC(=O)[O-] [2-hydroxy-N,N,N-trimethylethanaminium glycinate]	1.5224 ± 0.0011
C[N+](C)(C)CCO.N[C@@H](CO)C(=O)[O-] [2-hydroxy-N,N,N-trimethylethanaminium L-serinate]	1.5429 ± 0.0011

Below are some compounds; for each one, tell me its refractive index.
1. C[N+](C)(C)CCO.O=C([O-])[C@@H]1CCCN1 [2-hydroxy-N,N,N-trimethylethanaminium L-prolinate]
2. C[C@H](N)C(=O)[O-].C[N+](C)(C)CCO [2-hydroxy-N,N,N-trimethylethanaminium L-alaninate]

Given back:
["1.5408 ± 0.0011", "1.514 ± 0.0011"]

* * *

- measurement.setup: 333.15 K; 101.33 kPa; Liquid; conductivity meter (DDJS-308A)
Exercise: state measured electrical conductivity for each of the compounds provided.
Give bare numbers, in S/m.

Consider the following illustrative entries.
compound	electrical conductivity [S/m]
C[N+](C)(C)CCO.O=C([O-])[C@@H]1CCCN1 [2-hydroxy-N,N,N-trimethylethanaminium L-prolinate]	0.00435
C[C@H](N)C(=O)[O-].C[N+](C)(C)CCO [2-hydroxy-N,N,N-trimethylethanaminium L-alaninate]	0.0397
C[N+](C)(C)CCO.NCC(=O)[O-] [2-hydroxy-N,N,N-trimethylethanaminium glycinate]	0.0609
C[N+](C)(C)CCO.N[C@@H](CO)C(=O)[O-] [2-hydroxy-N,N,N-trimethylethanaminium L-serinate]	0.0175

Asked: Which measured electrical conductivity value corresponds to C[N+](C)(C)CCO.NCCC(=O)[O-] [2-hydroxy-N,N,N-trimethylethanaminium β-alaninate] ?
Given back: 0.0227

* * *

- test.details: refractive index (Na D-line) (dimensionless)
- measurement.setup: 343.15 K; 101.33 kPa; Liquid; Standard Abbe refractometry
measured.parameter: refractive index
Numbers only.

compound	refractive index
C[N+](C)(C)CCO.N[C@@H](CO)C(=O)[O-] [2-hydroxy-N,N,N-trimethylethanaminium L-serinate]	1.5326
C[N+](C)(C)CCO.O=C([O-])[C@@H]1CCCN1 [2-hydroxy-N,N,N-trimethylethanaminium L-prolinate]	1.5306
C[C@H](N)C(=O)[O-].C[N+](C)(C)CCO [2-hydroxy-N,N,N-trimethylethanaminium L-alaninate]	1.5041
C[N+](C)(C)CCO.NCC(=O)[O-] [2-hydroxy-N,N,N-trimethylethanaminium glycinate]	1.5125

Moving on to the next compound.
Asked: Which measured refractive index value corresponds to C[N+](C)(C)CCO.NCCC(=O)[O-] [2-hydroxy-N,N,N-trimethylethanaminium β-alaninate] ?
Given back: 1.5225

* * *

- measurement.setup: 323.15 K; 101.33 kPa; Liquid; Cone and plate viscometry
measured.parameter: viscosity (mPa·s)
Numbers only, in mPa·s.

Consider the following illustrative entries.
compound	unit.annotation	reading
C[N+](C)(C)CCO.O=C([O-])[C@@H]1CCCN1 [2-hydroxy-N,N,N-trimethylethanaminium L-prolinate]	mPa·s	463.5
C[C@H](N)C(=O)[O-].C[N+](C)(C)CCO [2-hydroxy-N,N,N-trimethylethanaminium L-alaninate]	mPa·s	31.5
C[N+](C)(C)CCO.NCC(=O)[O-] [2-hydroxy-N,N,N-trimethylethanaminium glycinate]	mPa·s	19.9

Below are some compounds; for each one, tell me its viscosity.
1. C[N+](C)(C)CCO.NCCC(=O)[O-] [2-hydroxy-N,N,N-trimethylethanaminium β-alaninate]
2. C[N+](C)(C)CCO.N[C@@H](CO)C(=O)[O-] [2-hydroxy-N,N,N-trimethylethanaminium L-serinate]

Given back:
[470.7, 811.5]
